Target: T1, O4-bH
T1 chain: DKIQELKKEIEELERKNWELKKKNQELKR
Experiment: two-hybrid library CCNG1;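 further: natural log of median RNA to DNA barcode read ratio; higher means stronger binding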
endpoint.name: interaction score

Here are 2 binders together with their reported answers.
binder="DKIQELKKKNEELKREIWELEKKNQELKR [O16-bH]" recorded_measurement=0.0481
binder="DKIQELKKEIEELERKNWELKKKNQELKR [O4-bH]" recorded_measurement=-1.04

a. DENQELEKEIEELERENWELEKKIQELKR [O14-bH]
b. DEIQELEKKIEELKRENWELEKENQELER [O3-bH]
Consider entries a and b . Which has the numerically lower interaction score? Identify your pick by its label.
a
